Form field: apparent KD of MS2 coat protein (one value per entry).
Test system: MS2 coat protein
assay: apparent KD of MS2 coat protein; designed switch direction (-1 OFF switch, 1 ON switch): -1; higher = weaker reporter binding
conditions: input ligand: none
metric name: apparent KD of MS2 coat protein (nM)

INSERT INTO results (sequence_content, value_reported) VALUES
  ('GUACUGACAGGAUAUACAUGAGGAUCACCCAUGUCCUUAGGCUGACAAAAGUCAGCAAGUAGAAGGGUCUGUAC [Omei Ex3 Model Bachelor''s Dilema v3] (Eterna round: R97, puzzle: Exclusion 3)', 85.5),
  ('GUCCUGCAGCUUUGCUGUAGGCGUACAUGAGGAUCACCCAUGUAGGAUAUGGUAGGCUUUGCUUACUAGAAGGAUAGAGUGAUC [JL EXNG3 1.28] (Eterna round: R96, puzzle: Exclusion NG 3)', 38.4),
  ('GAUCUACAUGAGGAUCACCCAUGUGAGGAUAUUUAGACCAACGCUCUAGCUGUUGAUGGAAGAAGGCACCACCG [Eternabot (L2) Solution 56] (Eterna round: R97, puzzle: Exclusion 1)', 26.2);

====

Form field: apparent KD of MS2 coat protein (one value per entry).
System: MS2 coat protein
assay: apparent KD of MS2 coat protein; designed switch direction (-1 OFF switch, 1 ON switch): 1; higher = weaker reporter binding
conditions: input ligand: microRNA oligo, concentration not stated
metric name: apparent KD of MS2 coat protein (µM)

INSERT INTO results (sequence_content, tested_system, metric_name, value_reported) VALUES
  ('UGAACCUUCACAGGAUAUCAUGCGAAAAUUGCGUGAGAAGGGUGAAUGUGGUGUUCAUAGUUGCACAUGAGGAUCACCCAUGUA [SameState NG1 #52] (Eterna round: R96, puzzle: Same State NG 1)', 'MS2 coat protein', 'apparent KD of MS2 coat protein', 0.135),
  ('GGUCGGACAUGAGGAUCACCCAUGUGGUGACCGGAAACGGCAUAGGAUAUCUGUCCGAAAAGGUCAGAGAAGGGUGAACCGACC [Fiskers NG3ss - 69] (Eterna round: R96, puzzle: Same State NG 3)', 'MS2 coat protein', 'apparent KD of MS2 coat protein', 0.0155),
  ('GGGAGAGGUACAGGAUAUGGUGAGGAUCACCCACUAGAAGGGUGCACAUGUGAAUCGGACAUGAGGAUCACCCAUGUUUGGCGU (Eterna round: R96, puzzle: Same State NG 1)', 'MS2 coat protein', 'apparent KD of MS2 coat protein', 0.0748),
  ('AUGAAGAACUAAGGAUAUUGAAUACAUAUGUUUAACAUGAGGAUCACCCAUGUGGGUUGCGGUAUCGAGAAGGUAGAAUAAUAG [Mat - same State NG 2 - JL mod - D92] (Eterna round: R96, puzzle: Same State NG 2)', 'MS2 coat protein', 'apparent KD of MS2 coat protein', 0.0703);

====

apparent KD of K4 kissing-loop reporter values for the sequences below.
System: K4 kissing-loop RNA reporter
assay: apparent KD of K4 kissing-loop reporter; higher = weaker reporter binding
conditions: Eterna round: R107; input ligand: FMN 200 uM
metric name: apparent KD of K4 kissing-loop reporter

INSERT INTO measurements (sequence_content, tested_system, metric_name, value_reported) VALUES
  ('GUAUCGCUAGGAGGAUAUUUCAAUUCGCCUAUAAAAGGUGAUACGGAGUGAUGUUCCGAUUUACGGAAAGAAGGCCUAGUGAUAC [FMN B 9]', 'K4 kissing-loop RNA reporter', 'apparent KD of K4 kissing-loop reporter', '137 nM'),
  ('GGUAGCAUGGCGGCCGCCACUAGAUCAGUGAUGUUGAUCCCGCCGUCUUACGGCGAGUCAGAGGCUAGGACCGGGCCAUGCUACC', 'K4 kissing-loop RNA reporter', 'apparent KD of K4 kissing-loop reporter', '601 nM'),
  ('UACUAUAGUGAUGUUAUAGAUAAAACAGAUACCAGUGUUACAUAACACCCUUGGCAGCUGAAAAGGGAAAGUAUAAAUGUGUAUU [AstrosSSTHe-A#1newdesignED]', 'K4 kissing-loop RNA reporter', 'apparent KD of K4 kissing-loop reporter', '156 nM'),
  ('GGAUCCACCAGUGAUGUUGGAGAAAACUCUAAGGAUAUGACGAAAGUCAGAAGGUAGUAGACUGGACAAAGUCCGGUCGGAUCCA [FmnA 23 U30+A56]', 'K4 kissing-loop RNA reporter', 'apparent KD of K4 kissing-loop reporter', '583 nM'),
  ('GCCGUAGAUGGAAGGAGCGUGGUGGACUCGUGAAGUGAUGUUUCAAGUCGUUAUGCCCAACCACAGGUAGGUCGCCAUCUACGGC', 'K4 kissing-loop RNA reporter', 'apparent KD of K4 kissing-loop reporter', '277 nM'),
  ('CACGGUUAUACGGCCGCCACUGAUUGCGUUGCAGUGAUGUUGCACGCGUCCGACUACACCUCAUUCAGGACCGGGUAGACAUGCA [theeternabot_exclusion_KL_Trp_B_11]', 'K4 kissing-loop RNA reporter', 'apparent KD of K4 kissing-loop reporter', '238 nM');

====

Tested on: MS2 coat protein
assay: apparent KD of MS2 coat protein; higher = weaker reporter binding
conditions: Eterna round: R107; input ligand: theophylline 2 mM
Below: a set of entries, each annotated with reported apparent KD of MS2 coat protein.
metric name: apparent KD of MS2 coat protein (nM)

INSERT INTO assay_data (sequence_content, tested_system, metric_name, value_reported) VALUES
  ('UAUCCACAUGAGGAUCACCCAUGUAGGGAAGGAGCGGUGAUUUCACCAGGUAGGUCGCCUUACUGAGGAGAGCCGGUGGAAUCGU [Exclusion - Arginine A (Freestyle 31)]', 'MS2 coat protein', 'apparent KD of MS2 coat protein', 32.9),
  ('GGGUACAUCGCGGCCGCCACUUGUGUAAAUACAUGAGGAUCACCCAUGUCGAUGGAGACAUCGGCAAGGACCGGGUGAUGUACCG', 'MS2 coat protein', 'apparent KD of MS2 coat protein', 146),
  ('UGUAUGUGAUUUGAUACCAGACCAGCUGGUGGUCCAUGAGGAACACCCAUGGAGGUUUGGGUCCCUUGGCAGCAAAUCGCAUACU [SS Theo B #24 Ms20]', 'MS2 coat protein', 'apparent KD of MS2 coat protein', 74.5),
  ('AGACAUGAGGAUCACCCAUGUAGUAUGGAUACCAGAUGUAGAUUAGUCCCUUGGCAGCUGUGCUGAAGUGAUGCAUUGCUCCUAG [#15 Exclusion-TheophyllineA]', 'MS2 coat protein', 'apparent KD of MS2 coat protein', 24.2),
  ('UCUUGAGUUUCGGAUACCAGUGUUGUCGAUACAUGAGGAUCACCCAUGUUAGAGGAUGUACACCCUUGGCAGCCGGGUGUGGCGG [tftmullin]', 'MS2 coat protein', 'apparent KD of MS2 coat protein', 12.6),
  ('AUAUUUAAUGGAAGGAGCGCGGAUAAUAAAGUGGGUAAACAUGAGGAUCACCCAUGUAAACCGCAGGUAGGUCGCCGAAAUAUAU [AstrosEXyARgB#8]', 'MS2 coat protein', 'apparent KD of MS2 coat protein', 57.6),
  ('AACAUGAGGAUCACCCAUGUGUCCUCGAAACGAGGACCGGUACGGCCGCCACUCGAAUAAGCUGUUGACGAAAAGUCAGCAGCAA [Mat - Exclusion - Trytophan A - D19]', 'MS2 coat protein', 'apparent KD of MS2 coat protein', 314);

====

System: K4 kissing-loop RNA reporter;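 further: bound reporter read as fluorescence of individual clusters on recovered sequencing chips by microscopy, with normalized cluster intensities fitted with a binding model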
assay: apparent KD of K4 kissing-loop reporter; higher = weaker reporter binding
conditions: Eterna round: R107; input ligand: theophylline 20 uM
Label 1 (yes) when apparent KD of K4 kissing-loop reporter >= 300 nM; otherwise 0 (no).

INSERT INTO assay_data (sequence_content, category) VALUES
  ('AGCAGUGAUGUUGCAUUUAUAAAGACCGAUACCAGUAUCGAUAGAUACCCUUGGCAGCGGAUUUCCGCAACGACUAGGAAACUAG [Ex Theophylline A K4 13]', '1 (yes)'),
  ('UAAGAUAUAAGGGAUACCAGCCAUAAGGAAAGUGUGAUGAGUGAUGUUCUGACAAGCCAAGGCCCUUGGCAGCUUUAAUAGCAUC [Theophylline B Same State; Euphoria Solution]', '0 (no)'),
  ('UGCUUUAUCAGAAGGAGCGCGUUGGUCAUAAUAAUAAUCAGUGAUGUUGAUAUAUGAGGAUUGCAGGUAGGUCGCUGAUAUAGCU [KL-XARG-B1]', '0 (no)'),
  ('GCCGUAGAUUGAAGGAGCGCCUUCUUACCAAGAGUGAUGUUCUUUGGUACCAUGUUCAGCAGGCAGGUAGGUCGCAAUCUACGGC', '0 (no)'),
  ('CGCAAUCGAACUGAUACCAGUCAUAAUGGCUGAGAAGCACGAGUGAUGUUCGUAACGAAUGACCCUUGGCAGCAGUUCGAUUGCG [Theo B SS t8]', '1 (yes)'),
  ('GGUCGGAGUGAUGUUCCGAGCUUCAGUCAUCGAGGACCGGUACGGCCGCCACUCGUCUACUAUGACGUAUCACCCUCCACGUGUU [theeternabot_sameState_KL_Trp_A_33]', '0 (no)');
